B1: 2K2A (parent)
chain: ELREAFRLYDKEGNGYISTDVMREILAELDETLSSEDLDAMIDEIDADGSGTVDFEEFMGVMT

- Variants of: B1
- assay.explanation: folding stability dG (cDNA display proteolysis); higher = more stable
- stated.conditions: PBS, room temperature
reported.property: folding stability dG (kcal/mol)
Kindly answer with a numeric value in kcal/mol, unit omitted.

Consider the worked cases shown below.
# lookup: folding stability dG of `T19W`
1.4

# lookup: folding stability dG of `T63H`
1.76

# lookup: folding stability dG of `M59R`
1.96

# lookup: folding stability dG of `A47D`
1.06

// switching to the query variant
# lookup: folding stability dG of `M22W`
0.847
